# Assayed system: FLT3-ITD (Homo sapiens, UniProt P36888, ITD)
# Sequence (P36888 27-993, change not shown): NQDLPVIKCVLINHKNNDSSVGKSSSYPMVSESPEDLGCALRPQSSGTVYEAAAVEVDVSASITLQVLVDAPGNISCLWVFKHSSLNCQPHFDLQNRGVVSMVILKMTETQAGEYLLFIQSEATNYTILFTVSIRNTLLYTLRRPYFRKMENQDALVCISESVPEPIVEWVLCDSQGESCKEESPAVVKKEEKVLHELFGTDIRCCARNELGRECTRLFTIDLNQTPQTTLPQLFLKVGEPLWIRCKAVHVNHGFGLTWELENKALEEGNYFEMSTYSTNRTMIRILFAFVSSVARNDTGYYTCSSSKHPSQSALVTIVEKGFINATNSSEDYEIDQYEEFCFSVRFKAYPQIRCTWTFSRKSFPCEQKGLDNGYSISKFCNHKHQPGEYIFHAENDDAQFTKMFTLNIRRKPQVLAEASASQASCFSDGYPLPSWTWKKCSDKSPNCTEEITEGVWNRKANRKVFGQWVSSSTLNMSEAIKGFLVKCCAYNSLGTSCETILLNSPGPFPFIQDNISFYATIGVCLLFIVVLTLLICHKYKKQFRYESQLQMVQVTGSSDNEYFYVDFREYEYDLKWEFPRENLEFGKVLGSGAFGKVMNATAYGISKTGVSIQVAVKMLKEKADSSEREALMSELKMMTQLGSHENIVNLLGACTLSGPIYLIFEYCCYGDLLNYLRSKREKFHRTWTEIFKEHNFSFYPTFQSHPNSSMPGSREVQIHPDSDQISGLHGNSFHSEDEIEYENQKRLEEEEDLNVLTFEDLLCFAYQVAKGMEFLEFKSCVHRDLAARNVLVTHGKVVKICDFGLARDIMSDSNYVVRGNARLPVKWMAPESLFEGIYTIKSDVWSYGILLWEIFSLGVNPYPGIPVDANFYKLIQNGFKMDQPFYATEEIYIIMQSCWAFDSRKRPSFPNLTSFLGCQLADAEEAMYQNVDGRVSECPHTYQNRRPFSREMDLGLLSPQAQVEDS
# Assay info: Kinase inhibition assay FLT3-ITD
# Format: biochemical
# Details: at least duplicate experiments; read-out: IC50 FLT3-ITD
Property: IC50 (nM)

Recorded IC50, per entry:
- Compound: "Cn1c(=O)n(-c2ccccc2)c2nc(Nc3ccc(N4CCNCC4)cc3)ncc21 [14m]"
  IC50 / nM: 54
- Compound: "Cc1ccc(-n2c(=O)n(C)c3cnc(Nc4ccc(N5CCNCC5)cc4)nc32)cc1 [14o]"
  IC50 / nM: 160
- Compound: "Cn1c(=O)n(C2CC2)c2nc(Nc3ccc(N4CCNCC4)cc3)ncc21 [14b]"
  IC50 / nM: 642
- Compound: "FC(F)(F)c1nc2cnc(Nc3ccc(N4CCNCC4)cc3)nc2n1C1CCCC1 [12a]"
  IC50 / nM: 224

[I] Cn1c(=O)n(C2CCCCCCCCCCC2)c2nc(Nc3ccc(N4CCNCC4)cc3)ncc21 [14j]
[II] CC1CCC(n2c(=O)n(C(C)C)c3cnc(Nc4ccc(N5CCNCC5)cc4)nc32)CC1 (stereo not drawn) [15c]
[III] O=c1[nH]c2cnc(Nc3ccc(N4CCNCC4)cc3)nc2n1C1CCCCC1 [13b]
[IV] Cc1ccccc1-n1c(=O)n(C)c2cnc(Nc3ccc(N4CCNCC4)cc3)nc21 [14n]
(Q) Hey, can you sort those compounds up there by IC50, smallest first? Output spec: labels arranged per the requested ranking.
(A) II, I, III, IV

###

Parameter melting point: see the listing below.

Recorded melting point, per entry:
- Compound: "Cn1c(=O)n(C2CCCC2)c2nc(Nc3ccc(N4CCNCC4)cc3)ncc21 [14d]"
  melting point: "110 to 112 °C"
- Compound: "CC1CCC(n2c(C(F)(F)F)nc3cnc(Nc4ccc(N5CCNCC5)cc4)nc32)CC1 (stereo not drawn) [12c]"
  melting point: "228 to 230 °C"

(Q) GET /values?readout=melting point&item= COc1ccccc1-n1c(=O)n(C)c2cnc(Nc3ccc(N4CCNCC4)cc3)nc21 [14p]
(A) 185 to 187 °C

(Q) GET /values?readout=melting point&item= Cn1c(=O)n(-c2ccccc2)c2nc(Nc3ccc(N4CCNCC4)cc3)ncc21 [14m]
(A) 120 to 122 °C

(Q) GET /values?readout=melting point&item= FC(F)(F)c1nc2cnc(Nc3ccc(N4CCNCC4)cc3)nc2n1C1CCCCCC1 [12d]
(A) 216 to 218 °C

(Q) GET /values?readout=melting point&item= Cn1c(=O)n(C2CCCCCC2)c2nc(Nc3ccc(N4CCNCC4)cc3)ncc21 [14h]
(A) 256 to 258 °C

###

Reported GI50 values, K562 cells.
Property: GI50 (µM)

- Compound: "Cn1c(=O)n(C2CCCCCCCCCCC2)c2nc(Nc3ccc(N4CCNCC4)cc3)ncc21 [14j]"
  GI50, µM: 3.59

[1] Cn1c(=O)n(C2CCCCC2)c2nc(Nc3ccc(N4CCNCC4)cc3)ncc21 [14e]
[2] FC(F)(F)c1nc2cnc(Nc3ccc(N4CCNCC4)cc3)nc2n1C1CCCCC1 [12b]
[3] FC(F)(F)c1nc2cnc(Nc3ccc(N4CCNCC4)cc3)nc2n1C1CCCCCC1 [12d]
(Q) Order the 3 compounds from highest to lowest GI50. Output spec: labels arranged per the requested ranking.
(A) 1, 3, 2
